Here the recorded kon is given for each entry.
Experimental Target: T1, recombinant His-tagged cynomolgus PD-1 (Acro Biosystems) (cynomolgus, UniProt B0LAJ3 25-170)
T1 construct: His-tagged; also called Cyno PD-1; not shown: His tag (and any linker) of the Acro Biosystems product
T1 sequence (B0LAJ3 entry or part of it limits assumed): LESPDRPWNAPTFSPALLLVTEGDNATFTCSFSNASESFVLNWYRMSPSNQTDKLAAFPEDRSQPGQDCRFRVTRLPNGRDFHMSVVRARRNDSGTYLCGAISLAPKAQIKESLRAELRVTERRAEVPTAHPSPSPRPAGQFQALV
Protocol Details: SPR Carterra LSA;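 further: antibodies or fusion proteins amine-coupled on an HC30M chip, soluble His-tagged human or cynomolgus PD-1 titrated over them, non-regenerative kinetics, constants fitted from titration curves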
Property Name: kon (M⁻¹ s⁻¹)

[[record]]
binder = "Anti-PD-1 clone J110 hIgG1 (antibody, V domains shown) VH: DVQLQESGPGLVKPSQSLSLTCTVTGHSITSDYAWNWIRQFPGDKLEWMGYISYSGYTTYNPSLKSRVSITRDTSKNQFFLQLNSVTTEDTATYFCARDLDYGPWFAYWGQGTLVTVSA VL: DIQMTQSPASLSASVGETVTLTCRASENIHNYLAWYQQKQGKSPQLLVYNVKTLADGVPSRFSGSGSGTQYSLKINSLQPEDFGSYYCQHFWSSPWTFGGGTKVEIKR"
experimental_value = 41000

[[record]]
binder = "OMC.1.B6-hIgG4 (antibody, V domains shown) VH: EVQLLESGGGLVQPGGSLRLSCAASGFTFSSNYMSWVRQAPGKGLEWVSAISSSGGTIFYADSVKGRFTISRDNSKNTLYLQMNSLRAEDTAVYYCAKHKWNAVYYDGMDVWGQGTTVTVSS VL: QSVLTQPPSASGTPGQRVTISCSGSNSNIGRNLVNWYQQLPGTAPKLLIYTIDQRPSGVPDRFSGSKSGTSASLVISGLQSEDEADYYCAAWDGSLNAWVFGGGTKLTVLG"
experimental_value = 88000

[[record]]
binder = "OMC476pG10-hIgG4 (antibody, V domains shown) VH: DVQLVESGGGVVRPGGSLRLSCAASGFTFSIYAMSWVRQAPGEGLEWVSHISASGGSTYYADSVKGRFAISRDNSKNTLYLQMNSLRAEDTAVYYCTTNLGSDYWGLGTLVTVSS VL: QSVLTQPPSASGTPGQRVTISCSGSYSDIGTNYVYWYQQLPGTAPKLLIFATDRRPSGVPDRFSGSKSGTSASLAISGLQSEDEADYYCGTWDDSLNVWVFGGGTKLTVLG"
experimental_value = 120000

